Listed here are compounds together with their documented melting point.
Lab book: enter the figure in °C, no units written.

Consider the reported melting point for these compounds:
| COMPOUND | UNIT ABBREVIATION | ASSAY VALUE |
| --- | --- | --- |
| CCCCn1cc(CN2CC(=Cc3ccc(C(C)(C)C)cc3)C(=O)C(=Cc3ccc(C(C)(C)C)cc3)C2)nn1 [14b] | °C | 145 |
| CCCCc1ccc(C=C2CN(Cc3cn(CCC)nn3)CC(=Cc3ccc(CCCC)cc3)C2=O)cc1 [16a] | °C | 127 |
| Cc1ccc(S(=O)(=O)N2C/C(=C\c3ccc(C(C)C)cc3)C(=O)/C(=C/c3ccc(C(C)C)cc3)C2)cc1 | °C | 177 |
| Cc1ccc(S(=O)(=O)N2C/C(=C\c3ccc(Cl)cc3)C(=O)/C(=C/c3ccc(Cl)cc3)C2)cc1 | °C | 209 |
| C#CCN1CC(=Cc2ccc(C(C)(C)C)cc2)C(=O)C(=Cc2ccc(C(C)(C)C)cc2)C1 [10d] | °C | 182 |
| CCCc1ccc(/C=C2\CN(S(=O)(=O)c3ccc(C)cc3)C/C(=C\c3ccc(CCC)cc3)C2=O)cc1 | °C | 157 |

*Q* Need melting point of CC(C)(C)c1ccc(/C=C2\CN(S(=O)(=O)c3ccccc3)C/C(=C\c3ccc(C(C)(C)C)cc3)C2=O)cc1 , thanks.
*A* 194

*Q* Need melting point of CCCn1cc(CN2CC(=Cc3ccc(CC)cc3)C(=O)C(=Cc3ccc(CC)cc3)C2)nn1 [12a] , thanks.
*A* 149
